# TARGET: KRas G12V (Homo sapiens, UniProt P01116, G12V)
# Sequence (P01116 1-169 isoform P01116-2 G12V): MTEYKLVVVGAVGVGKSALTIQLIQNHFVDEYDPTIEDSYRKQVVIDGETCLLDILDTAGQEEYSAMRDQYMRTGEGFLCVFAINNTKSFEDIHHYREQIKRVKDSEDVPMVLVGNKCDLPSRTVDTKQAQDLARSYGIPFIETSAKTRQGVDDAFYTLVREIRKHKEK
# ASSAY DETAILS: biochemical
pIC50: −log10 of the molar value.
Reported values of pIC50 for individual entries

COMPOUND: CCc1c(F)ccc2cc(O)cc(-c3ncc4c(N5CCCOC(CO)C5)nc(OC[C@@]56CCCN5C[C@H](F)C6)nc4c3F)c12 (stereo partly shown) [Example 343]
TARGET: KRas G12V (Homo sapiens, UniProt P01116, G12V)
INEQUALITY SYMBOL: ≥
pIC50: 8.70
--
COMPOUND: Fc1c(-c2cccc3cccc(F)c23)ncc2c(NCc3ccc4nccn4c3)nc(OCC34CCCN3CCC4)nc12 [Example 208]
TARGET: KRas G12V (Homo sapiens, UniProt P01116, G12V)
INEQUALITY SYMBOL: =
pIC50: 6.08
--
COMPOUND: O=S1(=O)NCC2(CCCN(c3nc(OC[C@@]45CCCN4C[C@H](F)C5)nc4c(F)c(-c5cc(O)cc6ccc(F)c(Cl)c56)ncc34)C2)N1 (stereo partly shown) [Example 417]
TARGET: KRas G12V (Homo sapiens, UniProt P01116, G12V)
INEQUALITY SYMBOL: ≥
pIC50: 8.70
--
COMPOUND: CCc1c(F)ccc2cc(O)cc(-c3ncc4c(N5CCCCC6(C5)NC(=O)NC6=O)nc(OC[C@@]56CCCN5C[C@H](F)C6)nc4c3F)c12 (stereo partly shown) [Example 338]
TARGET: KRas G12V (Homo sapiens, UniProt P01116, G12V)
INEQUALITY SYMBOL: =
pIC50: 8.52
--
COMPOUND: O=C1CC2(CCCN(c3nc(OC[C@@]45CCCN4C[C@H](F)C5)nc4c(F)c(-c5cc(O)cc6ccc(F)c(F)c56)ncc34)C2)N1 (stereo partly shown) [Example 452]
TARGET: KRas G12V (Homo sapiens, UniProt P01116, G12V)
INEQUALITY SYMBOL: ≥
pIC50: 8.70
--
COMPOUND: Fc1c(-c2cccc3cccc(Cl)c23)ncc2c(N3CCCC(c4c[nH]nn4)C3)nc(OCC34CCCN3CCC4)nc12 (stereo not shown) [Example 108]
TARGET: KRas G12V (Homo sapiens, UniProt P01116, G12V)
INEQUALITY SYMBOL: =
pIC50: 5.09
--
COMPOUND: Cc1ccc2[nH]ncc2c1-c1ncc2c(N3CCCC(C)(O)C3)nc(OCC34CCCN3CCC4)nc2c1F (stereo not shown) [Example 430]
TARGET: KRas G12V (Homo sapiens, UniProt P01116, G12V)
INEQUALITY SYMBOL: =
pIC50: 5.32
--
COMPOUND: CCc1c(F)ccc2cc(O)cc(-c3ncc4c(NCCc5c[nH]c6ncccc56)nc(OC[C@@]56CCCN5C[C@H](F)C6)nc4c3F)c12 [Example 157]
TARGET: KRas G12V (Homo sapiens, UniProt P01116, G12V)
INEQUALITY SYMBOL: ≥
pIC50: 8.70
--
COMPOUND: CN(C)CC1(COc2nc(N3CCCC(C)(O)C3)c3cnc(-c4cccc5cccc(F)c45)c(F)c3n2)CC1 (stereo not shown) [Example 256]
TARGET: KRas G12V (Homo sapiens, UniProt P01116, G12V)
INEQUALITY SYMBOL: =
pIC50: 5.34
--
COMPOUND: CN(CCC(N)=O)c1nc(OCC23CCCN2CCC3)nc2c(F)c(-c3cccc4cccc(F)c34)ncc12 [Example 226]
TARGET: KRas G12V (Homo sapiens, UniProt P01116, G12V)
INEQUALITY SYMBOL: =
pIC50: 4.85
--
COMPOUND: O=CNC1CCN(c2nc(OCC34CCCN3CCC4)nc3c(F)c(-c4cccc5cccc(F)c45)ncc23)CC1 [Example 244]
TARGET: KRas G12V (Homo sapiens, UniProt P01116, G12V)
INEQUALITY SYMBOL: =
pIC50: 5.45
--
COMPOUND: Fc1c(-c2cccc3cccc(Cl)c23)ncc2c(N3CCCC(n4cccn4)C3)nc(OCC34CCCN3CCC4)nc12 (stereo not shown) [Example 109]
TARGET: KRas G12V (Homo sapiens, UniProt P01116, G12V)
INEQUALITY SYMBOL: =
pIC50: 5.13
--
COMPOUND: Fc1c(-c2cccc3cccc(F)c23)ncc2c(Nc3ccc4[nH]ncc4c3)nc(OCC34CCCN3CCC4)nc12 [Example 100]
TARGET: KRas G12V (Homo sapiens, UniProt P01116, G12V);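 further: KRas binding measured by TR-FRET displacement at room temperature, IC50 fitted from percent of control values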
INEQUALITY SYMBOL: =
pIC50: 4.76

---

# TARGET: KRas G12C (Homo sapiens, UniProt P01116, G12C);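 further: binding to KRas assessed by TR-FRET displacement after one hour incubation at room temperature, potency fitted from percent-of-control values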
# Sequence (P01116 1-169 isoform P01116-2 G12C): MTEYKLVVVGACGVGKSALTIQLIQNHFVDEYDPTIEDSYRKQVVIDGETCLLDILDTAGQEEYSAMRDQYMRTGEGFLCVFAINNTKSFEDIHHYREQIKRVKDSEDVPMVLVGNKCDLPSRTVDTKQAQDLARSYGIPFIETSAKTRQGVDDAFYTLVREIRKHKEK
# ASSAY DETAILS: biochemical
pIC50: −log10 of the molar value.
# binarize pIC50: threshold 6 inclusive, high side Criterion met, low side Criterion not met

COMPOUND: Fc1c(-c2cccc3cccc(F)c23)ncc2c(NCCCn3cnnn3)nc(OCC34CCCN3CCC4)nc12
CATEGORY LABEL: Criterion not met
--
COMPOUND: OCC1CN(c2nc(OCC34CCCN3CCC4)nc3c(F)c(-c4cccc5cccc(F)c45)ncc23)CCC1O (stereo not shown)
CATEGORY LABEL: Criterion not met
--
COMPOUND: CCc1c(F)ccc2cc(O)cc(-c3ncc4c(N5CCC[C@]6(C5)NC(=O)NC6=O)nc(OCC5(CN6CCCC6)CC5)nc4c3F)c12
CATEGORY LABEL: Criterion met
--
COMPOUND: Fc1c(-c2cccc3cccc(F)c23)ncc2c(NCc3c[nH]c4ncccc34)nc(OCC34CCCN3CCC4)nc12
CATEGORY LABEL: Criterion met
--
COMPOUND: CCc1c(F)ccc2cccc(-c3ncc4c(N5CCC[C@@](C)(O)C5)nc(OCC56CCCN5CCC6)nc4c3F)c12
CATEGORY LABEL: Criterion met
--
COMPOUND: CS(=O)(=O)C1CCCCN(c2nc(OCC34CCCN3CCC4)nc3c(F)c(-c4cccc5cccc(F)c45)ncc23)C1 (stereo not shown)
CATEGORY LABEL: Criterion not met
--
COMPOUND: Oc1nc(CCCNc2nc(OCC34CCCN3CCC4)nc3c(F)c(-c4cccc5cccc(Cl)c45)ncc23)n[nH]1
CATEGORY LABEL: Criterion not met

---

Each entry below carries its reported IC50.
# Test system: pERK in ASPC1 cells
# ASSAY DETAILS: Inhibition of KRas phosphorylation of ERK (Cisbio HTRF pERK assay)
# ASSAY CONDITIONS: Homo sapiens, ASPC1, read-out: Inhibition (HTRF IC50) of KRas-mediated Phosphorylation of ERK, AsPC-1

COMPOUND: CCc1c(F)ccc2cc(O)cc(-c3ncc4c(N5CCOCC6(COC6)C5)nc(OC[C@@]56CCCN5C[C@H](F)C6)nc4c3F)c12
TARGET: pERK in ASPC1 cells
IC50: 0.24 µM
--
COMPOUND: CCc1c(F)ccc2cc(O)cc(-c3ncc4c(N5CCC[C@@](C)(O)C5)nc(OC[C@@H]5CCCN5C)nc4c3F)c12
TARGET: pERK in ASPC1 cells
IC50: 0.02 µM
--
COMPOUND: O=C1NCC2(CCCN(c3nc(OC[C@@]45CCCN4C[C@H](F)C5)nc4c(F)c(-c5cc(O)cc6ccc(F)c(Br)c56)ncc34)C2)N1 (stereo partly drawn)
TARGET: pERK in ASPC1 cells
IC50: 0.398 µM
--
COMPOUND: CN(C)CC1(COc2nc(N3CCCC4(CNS(=O)(=O)N4)C3)c3cnc(-c4cc(O)cc5ccc(F)c(Cl)c45)c(F)c3n2)CC1 (stereo not drawn)
TARGET: pERK in ASPC1 cells
IC50: 0.339 µM
--
COMPOUND: CCc1c(F)ccc2cc(O)cc(-c3ncc4c(N5C[C@@H]6C(=O)NNC(=O)[C@@H]6C5)nc(OC[C@@]56CCCN5C[C@H](F)C6)nc4c3F)c12
TARGET: pERK in ASPC1 cells
IC50: ≥ 10 µM
--
COMPOUND: CCc1c(F)ccc2cc(O)cc(-c3ncc4c(N5C[C@H](O)CC[C@@H](O)C5)nc(OC[C@@]56CCCN5C[C@H](F)C6)nc4c3F)c12
TARGET: pERK in ASPC1 cells
IC50: 0.395 µM
--
COMPOUND: CCc1c(F)ccc2cc(O)cc(-c3ncc4c(N5CCCC6(CNC6=O)C5)nc(OC[C@@]56CCCN5C[C@H](F)C6)nc4c3F)c12 (stereo partly drawn)
TARGET: pERK in ASPC1 cells
IC50: 0.092 µM
--
COMPOUND: CCc1c(F)ccc2cc(O)cc(-c3ncc4c(N5CCOC[C@@](C)(O)C5)nc(OCC5(CN6CCCC6)CC5)nc4c3F)c12
TARGET: pERK in ASPC1 cells
IC50: 0.016 µM
--
COMPOUND: CCc1c(F)ccc2cc(O)cc(-c3ncc4c(NCC5CNS(=O)(=O)N5)nc(OC[C@@]56CCCN5C[C@H](F)C6)nc4c3F)c12 (stereo partly drawn)
TARGET: pERK in ASPC1 cells
IC50: 0.354 µM
--
COMPOUND: CCc1c(F)ccc2cc(O)cc(-c3ncc4c(N5CCCCC(S(C)(=O)=O)C5)nc(OC[C@@]56CCCN5C[C@H](F)C6)nc4c3F)c12 (stereo partly drawn)
TARGET: pERK in ASPC1 cells
IC50: 0.155 µM
--
COMPOUND: CCc1c(F)ccc2cc(O)cc(-c3ncc4c(N5CCCn6nc(C(=O)NC(C)C)cc6C5)nc(OC[C@@]56CCCN5C[C@H](F)C6)nc4c3F)c12
TARGET: pERK in ASPC1 cells
IC50: 0.013 µM
--
COMPOUND: Oc1cc(-c2ncc3c(N4CCCC5(CC(O)C5)C4)nc(OC[C@@]45CCCN4C[C@H](F)C5)nc3c2F)c2c(Br)c(F)ccc2c1 (stereo partly drawn)
TARGET: pERK in ASPC1 cells
IC50: 0.027 µM
